Reference source: ChEMBL document CHEMBL4339238

- PROCEDURE SUMMARY: Cytotoxicity against human MT4 cells measured after 3 days by CytoTox-Glo assay
- Type: cell-based
PROPERTY: CC50 at 72 h

CHEMICAL STRING | REPORTED MEASUREMENT
CCCCC/C=C/C=C/C(=O)O[C@H]1C(C)=C[C@]23C(=O)[C@@H](C=C(COC(C)=O)[C@@H](O)[C@]12O)[C@H]1[C@@H](C[C@H]3C)C1(C)C | > 900 nM
CCCC\C=C/C=C\C=C\C(=O)O[C@H]1C(C)=C[C@]23C(=O)[C@@H](C=C(COC(C)=O)[C@@H](O)[C@]12O)[C@H]1[C@@H](C[C@H]3C)C1(C)C | > 900 nM
Cc1cn([C@H]2C[C@H](N=[N+]=[N-])[C@@H](CO)O2)c(=O)[nH]c1=O | > 370 nM
CCCCCCCCCCCCCC(=O)OCC1=C[C@@H]2C(=O)[C@]3(C=C(C)[C@H](O)[C@@]3(O)[C@@H]1O)[C@H](C)C[C@@H]1[C@H]2C1(C)C | 32400 nM
CCCCCCCCCCCCCCCC(=O)OCC1=C[C@@H]2C(=O)[C@]3(C=C(C)[C@H](O)[C@@]3(O)[C@@H]1O)[C@H](C)C[C@@H]1[C@H]2C1(C)C | > 1700 nM
CCCCCCCCCCCCCCCC(=O)O[C@@H]1C(CO)=C[C@@H]2C(=O)[C@]3(C=C(C)[C@H](O)[C@@]13O)[C@H](C)C[C@@H]1[C@H]2C1(C)C | > 1700 nM
CCCCCCCCCC(=O)OCC1=C[C@@H]2C(=O)[C@]3(C=C(C)[C@H](O)[C@@]3(O)[C@@H]1O)[C@H](C)C[C@@H]1[C@H]2C1(C)C | 48800 nM

====

- PROCEDURE SUMMARY: Cytotoxicity against human MT4 cells measured after 3 days by CytoTox-Glo assay
- Assay type: cell-based
PROPERTY: CC50 at 72 h

CHEMICAL STRING | PROPERTY | REPORTED MEASUREMENT
CCCC\C=C/C=C/C=C/C(=O)O[C@H]1C(C)=C[C@]23C(=O)[C@@H](C=C(COC(C)=O)[C@@H](O)[C@]12O)[C@H]1[C@@H](C[C@H]3C)C1(C)C | CC50 at 72 h | > 0.9 µM
CC1=C[C@]23C(=O)[C@@H](C=C(CO)[C@@H](O)[C@]2(O)[C@H]1O)[C@H]1[C@@H](C[C@H]3C)C1(C)C | CC50 at 72 h | > 10 µM
CCCCCC/C=C\CCCCCCCC(=O)O[C@H]1C(C)=C[C@]23C(=O)[C@@H](C=C(CO)[C@@H](O)[C@@]12O)[C@H]1[C@@H](C[C@H]3C)C1(C)C | CC50 at 72 h | > 1.7 µM

====

In this section, each of the compounds is paired with its reported selectivity ratio.
- PROCEDURE SUMMARY: Selectivity index, ratio of CC50 for human MT4 cells to IC50 for HIV NL4-3 infected in human MT4 cells
- Assay type: toxicity, cell-based
- TEST CONTEXT: read-out: Ratio CC50/IC50

CHEMICAL STRING | selectivity ratio
CCCCCC/C=C\CCCCCCCC(=O)O[C@H]1C(C)=C[C@]23C(=O)[C@@H](C=C(CO)[C@@H](O)[C@@]12O)[C@H]1[C@@H](C[C@H]3C)C1(C)C | > 625
CCCCC/C=C\C=C\C(=O)O[C@H]1C(C)=C[C@]23C(=O)[C@@H](C=C(COC(C)=O)[C@@H](O)[C@]12O)[C@H]1[C@@H](C[C@H]3C)C1(C)C | > 526
CCCCCCCCCCCCCCCC(=O)OCC1=C[C@@H]2C(=O)[C@]3(C=C(C)[C@H](O)[C@@]3(O)[C@@H]1O)[C@H](C)C[C@@H]1[C@H]2C1(C)C | > 1540
